TEST DETAILS: xn = mol fraction of the nth substance listed
APPLIED CONDITIONS: 298.15 K; 101 kPa; Liquid; Capillary tube (Ostwald / Ubbelohde) method; x1 = 0.3
± gives the expanded uncertainty stated by the source.
Reported viscosity by item:

Recorded result, COC(=O)CCCCl [methyl 4-chlorobutanoate] + Cc1ccccc1 , viscosity: 0.753 ± 0.008 mPa·s

get_value(item= COC(=O)CCCCl [methyl 4-chlorobutanoate] + c1ccccc1 , readout=viscosity) returns 0.799 ± 0.008 mPa·s

GET /value?item= COC(=O)CCCCl [methyl 4-chlorobutanoate] + Cc1ccccc1C &field=viscosity returns 0.935 ± 0.008 mPa·s

Form field viscosity, entry COC(=O)CCCCl [methyl 4-chlorobutanoate] + Cc1ccc(C)cc1 : 0.775 ± 0.008 mPa·s
